experimental_system: cdk2/cyclin E complex (Homo sapiens, UniProt P24941)
assay_method_text: Phosphorylation of RNAPII CTD
Where a SMILES comes first, the peptide text is derived from it.
experimental_readout: IC50 (µM)

1) CC(C)C[C@H](NC(=O)[C@H](C)NC(=O)[C@H](C)NC(=O)[C@@H](N)CC(C)C)C(=O)N[C@@H](CO)C(=O)O [LAALS] (H-LAALS-OH) | 4.26
